Reference source for all entries: ChEMBL document CHEMBL3137667

- MEASUREMENT_SETUP: human, serum
Values of Hepatotoxicity (moderate) greater than or equal to 2 map to YES; values below map to NO.

Worked set:
CNCCC=C1c2ccccc2CCc2ccccc21 = NO
CCN1CCN(C(=O)N[C@@H](C(=O)N[C@@H]2C(=O)N3[C@@H]2SC(C)(C)[C@@H]3C(=O)O)c2ccccc2)C(=O)C1=O.C[C@]1(Cn2ccnn2)[C@H](C(=O)O)N2C(=O)C[C@H]2S1(=O)=O = YES
CCOC(Nc1ccc(C(=O)O)cc1)C(=O)c1ccc(-c2ccccc2)cc1 (configuration not stated) = NO
Cc1c(C)c2c(c(C)c1O)CC[C@@](C)(CCC[C@H](C)CCC[C@H](C)CCCC(C)C)O2 = NO
CC(C)(C)C(=O)OCOC(=O)[C@@H]1N2C(=O)[C@@H](NC(=O)[C@H](N)c3ccccc3)[C@H]2SC1(C)C = NO

Decide: is the reported value of Hepatotoxicity (moderate) for C1CCC(C(CC2CCCCN2)C2CCCCC2)CC1 (configuration not stated) equal to or greater than 2? YES

====

Quick list: Hepatotoxicity (cytolytic) per entry.
- MEASUREMENT_SETUP: human
Enter a number only.

CN1C(CCl)Nc2cc(Cl)c(S(N)(=O)=O)cc2S1(=O)=O (centres undefined) [METHYCLOTHIAZIDE] = 0
O=c1[nH]c(=O)n([C@@H]2O[C@H](CO)[C@@H](O)[C@@H]2O)cc1/C=C/Br [SORIVUDINE] = 0
CC(C)(Oc1ccc(CCNC(=O)c2ccc(Cl)cc2)cc1)C(=O)O [BEZAFIBRATE] = 1
COc1ccc2c(c1)c(CC(=O)OCC(=O)O)c(C)n2C(=O)c1ccc(Cl)cc1 [ACEMETACIN] = 0

Data request, read-out Hepatotoxicity (cytolytic), for CN(C)CCCN1c2ccccc2Sc2ccccc21 [PROMAZINE] 0

Data request, read-out Hepatotoxicity (cytolytic), for CN1CCN(C(c2ccccc2)c2ccccc2)CC1 [CYCLIZINE] 0

Data request, read-out Hepatotoxicity (cytolytic), for CC(C)Cc1ccc(CC(=O)O)cc1 [IBUFENAC] 3

Data request, read-out Hepatotoxicity (cytolytic), for O=C(c1ccc(OCCN2CCCCC2)cc1)c1c(-c2ccc(O)cc2)sc2cc(O)ccc12 [RALOXIFENE] 0

Data request, read-out Hepatotoxicity (cytolytic), for CC(NCCc1ccc(O)cc1)C(O)c1ccc(O)cc1 (centres undefined) [RITODRINE] 6

====

- MEASUREMENT_SETUP: human, serum
Quick list: Hepatotoxicity (acute) per entry.
Enter a number only.

CN1C(=O)CC(=O)N(c2ccccc2)c2cc(Cl)ccc21 = 0

Data request, read-out Hepatotoxicity (acute), for COCC(=O)Nc1c(I)c(C(=O)NCC(O)CO)c(I)c(C(=O)N(C)CC(O)CO)c1I (stereo not given) [IOPROMIDE] 1

Data request, read-out Hepatotoxicity (acute), for O=C1OCCN1/N=C/c1ccc([N+](=O)[O-])o1 3

Data request, read-out Hepatotoxicity (acute), for CC(/C=C1\SC(=S)N(CC(=O)O)C1=O)=C\c1ccccc1 1

Data request, read-out Hepatotoxicity (acute), for CN1CCN2c3ncccc3Cc3ccccc3C2C1 (stereo not given) 1

====

- MEASUREMENT_SETUP: human
Quick list: Hepatotoxicity (choleostasis) per entry.
Enter a number only.

These solved cases illustrate the format of a correct answer.
CC(C)(O)c1ccccc1CC[C@@H](SCC1(CC(=O)O)CC1)c1cccc(/C=C/c2ccc3ccc(Cl)cc3n2)c1 = 2
Cc1nccn1CC1CCc2c(c3ccccc3n2C)C1=O (centres undefined) = 0
COc1nc(C)ccc1CN1CC1C#N (centres undefined) [CIAMEXON] = 0

Data request, read-out Hepatotoxicity (choleostasis), for NS(=O)(=O)c1cc2c(cc1C(F)(F)F)NC(Cc1ccccc1)NS2(=O)=O (centres undefined) [BENDROFLUMETHIAZIDE] 0

Data request, read-out Hepatotoxicity (choleostasis), for CC(CN(C)C)CN1c2ccccc2Sc2ccc(C#N)cc21 (centres undefined) 3

====

Quick list: Hepatotoxicity (cytolytic) per entry.
- MEASUREMENT_SETUP: human

These solved cases illustrate the format of a correct answer.
CS(=O)(=O)c1ccc2c(c1)N(CCCN1CCC(C(N)=O)CC1)c1ccccc1S2 = 1
CCCCC1C(=O)NN(c2ccccc2)C1=O (centres undefined) = 1
NS(=O)(=O)c1cc2c(cc1Cl)NC(CC1CCCC1)NS2(=O)=O (centres undefined) [CYCLOPENTHIAZIDE] = 0
Cc1onc(-c2c(F)cccc2Cl)c1C(=O)N[C@@H]1C(=O)N2[C@@H]1SC(C)(C)[C@@H]2C(=O)O = 2

Data request, read-out Hepatotoxicity (cytolytic), for CO/N=C(\C(=O)N[C@@H]1C(=O)N2C(C(=O)[O-])=C(C[n+]3ccc(N)n3CCO)CS[C@H]12)c1csc(N)n1 0

Data request, read-out Hepatotoxicity (cytolytic), for N#C[C@H](O[C@@H]1O[C@H](CO[C@@H]2O[C@H](CO)[C@@H](O)[C@H](O)[C@H]2O)[C@@H](O)[C@H](O)[C@H]1O)c1ccccc1 0

Data request, read-out Hepatotoxicity (cytolytic), for CC(C)(C)c1ccc(CCC(O)COc2ccc(C(=O)O)cc2)cc1 (centres undefined) 0

====

- MEASUREMENT_SETUP: human, serum
Quick list: Hepatotoxicity (acute) per entry.
Enter a number only.

Cc1ncc(CNC(=O)N(CCCl)N=O)c(N)n1 = 0
CC1CCc2cc(F)cc3c(=O)c(C(=O)O)cn1c23 (stereo not given) = 0
CCn1cc(C(=O)O)c(=O)c2cc(F)c(N3CCNCC3)nc21 = 1
Cc1ncc(C[n+]2csc(CCO)c2C)c(N)n1 = 0

Below: the item to evaluate.
Data request, read-out Hepatotoxicity (acute), for CN(CCOc1ccc(CC2SC(=O)NC2=O)cc1)c1ccccn1 (stereo not given) 10

====

- MEASUREMENT_SETUP: human
EXPERIMENTAL_ENDPOINT: Hepatotoxicity (cytolytic)
Enter a number only.

These solved cases illustrate the format of a correct answer.
CCOC(=O)Nc1ccc2c(c1)N(C(=O)CCN1CCOCC1)c1ccccc1S2 [MORICIZINE] = 0
CC(C)(C)NC(=O)[C@H]1CC[C@H]2[C@@H]3CC[C@H]4NC(=O)C=C[C@]4(C)[C@H]3CC[C@]12C [FINASTERIDE] = 0
CCC1=C[C@@H]2CN(C1)Cc1c([nH]c3ccccc13)[C@@](C(=O)OC)(c1cc3c(cc1OC)N(C)[C@H]1[C@@](O)(C(=O)OC)[C@H](OC(C)=O)[C@]4(CC)C=CCN5CC[C@]31[C@@H]54)C2 [VINORELBINE] = 2

Data request, read-out Hepatotoxicity (cytolytic), for O=C(O)P(=O)(O)O [FOSCARNET] 0

Data request, read-out Hepatotoxicity (cytolytic), for CN(N=O)C(=O)N[C@@H](C=O)[C@@H](O)[C@H](O)[C@H](O)CO [STREPTOZOCIN] 1

Data request, read-out Hepatotoxicity (cytolytic), for CC(=O)O[C@@]12CO[C@@H]1C[C@H](O)[C@@]1(C)C(=O)[C@H](O)C3=C(C)[C@@H](OC(=O)[C@H](O)[C@@H](NC(=O)OC(C)(C)C)c4ccccc4)C[C@@](O)([C@@H](OC(=O)c4ccccc4)[C@H]21)C3(C)C.O.O.O [DOCETAXEL] 2

====

- MEASUREMENT_SETUP: human
EXPERIMENTAL_ENDPOINT: Hepatotoxicity (severe hepatitis)
Enter a number only.

These solved cases illustrate the format of a correct answer.
COc1ccc(CCN(C)CCCOc2ccc(S(=O)(=O)c3c(C(C)C)cn4ccccc34)cc2)cc1OC = 0
CCC1=C[C@@H]2CN(C1)Cc1c([nH]c3ccccc13)[C@@](C(=O)OC)(c1cc3c(cc1OC)N(C)[C@H]1[C@@](O)(C(=O)OC)[C@H](OC(C)=O)[C@]4(CC)C=CCN5CC[C@]31[C@@H]54)C2 = 1
COc1ccnc(C[S+]([O-])c2nc3ccc(OC(F)F)cc3[nH]2)c1OC (stereo not drawn) = 1
CN(C)CCCN1c2ccccc2Sc2ccccc21 = 0
CCC1(CC)C(=O)NCC(C)C1=O (stereo not drawn) = 0
CC(C)NCC(O)COc1ccc(COCCOC(C)C)cc1 (stereo not drawn) = 0

Data request, read-out Hepatotoxicity (severe hepatitis), for CC(C)(C)c1ccc(CCC(O)COc2ccc(C(=O)O)cc2)cc1 (stereo not drawn) 0

Data request, read-out Hepatotoxicity (severe hepatitis), for Oc1ccc(Cl)cc1Cc1cc(Cl)ccc1O 0

====

Quick list: Hepatotoxicity (cytolytic) per entry.
- MEASUREMENT_SETUP: human
Enter a number only.

These solved cases illustrate the format of a correct answer.
CCC1=C(C)CN(C(=O)NCCc2ccc(S(=O)(=O)NC(=O)N[C@H]3CC[C@H](C)CC3)cc2)C1=O [GLIMEPIRIDE] = 1
CC1=C(C(=O)O)N2C(=O)[C@@H](NC(=O)[C@H](N)c3ccc(O)cc3)[C@H]2SC1 = 1

Data request, read-out Hepatotoxicity (cytolytic), for Nc1nnc(-c2cccc(Cl)c2Cl)c(N)n1 12

Data request, read-out Hepatotoxicity (cytolytic), for NC(=O)N1c2ccccc2C=Cc2ccccc21 [CARBAMAZEPINE] 38

Data request, read-out Hepatotoxicity (cytolytic), for C[C@]12Cc3c[nH]nc3C[C@@H]1CC[C@@H]1[C@@H]2CC[C@@]2(C)[C@H]1CC[C@]2(C)O 2
